Tested on: ACHN renal
protocol-text: NCI tumour cell line growth inhibition, 48 h
endpoint: TGI (µM)
Field: numeric (µM). Do not append units.

Ask: GET /values?readout=TGI&item= `O=c1cc(-c2cccc(OC(F)(F)F)c2)[nH]c2ccc(N3CCCC3)cc12`
Result: 51.3

Ask: Which TGI value belongs to CCCCCCCCCCCC1N=C(N)N=C(N)N1c1cccc(Br)c1 (stereo not given) ?
Result: 7.05

Ask: Give its TGI value. Item: O=C(Nc1ccn(C2CC(O)C(COC(c3ccccc3)(c3ccccc3)c3ccccc3)O2)c(=O)n1)c1ccccc1 (stereo not given)
Result: 9.31

Ask: Name the reported TGI value associated with the molecule `COc1ccc(/C=C/C(=N\NC(=O)c2ccccc2)c2sc(Nc3ccc([N+](=O)[O-])cc3)nc2C)cc1OC`
Result: 41.8

###

Tested on: PC-3 prostate
protocol-text: NCI tumour cell line growth inhibition, 48 h; in the data active = GI50 below about 0.43 µM; inactive = the rest
The categories you may choose from are t for active, f for inactive

Some entries whose results are on file:
>  <compound>
CC[C@H](C)[C@H](NC(=O)C12C3C4C1C1C2C3C41NC)C(=O)N(C)[C@H](C[C@@H](OC(C)=O)c1nc(C(=O)N[C@@H](Cc2ccccc2)C[C@H](C)C(=O)OC)cs1)C(C)C (stereo partly specified)

>  <category>
f

$$$$
>  <compound>
Nc1nc(SCc2ccccc2CCl)c2[nH]cnc2n1

>  <category>
f

$$$$

Okay, next one:
Ask: Record lookup: outcome of this test for `CCCCNc1ncnc2c1cnn2-c1ccccc1` ?
Result: f

###

System: NCI/ADR-RES ovarian
protocol-text: NCI tumour cell line growth inhibition, 48 h; in the data active = GI50 below about 0.43 µM; inactive = the rest
Give one outcome, nothing more. List: t (active), f (inactive)

Reference set (5 entries):
>  <molecule>
CCSC[C@@H]1C[C@](O)(c2ccccc2)[C@@H](c2ccccc2)O1

>  <assayed-system>
NCI/ADR-RES ovarian

>  <category>
f

$$$$
>  <molecule>
Cn1cc(-c2cc(-c3cn(C)c4ccccc34)[nH]n2)c2ccccc21

>  <assayed-system>
NCI/ADR-RES ovarian

>  <category>
f

$$$$
>  <molecule>
COc1ccc(-c2nsc3c2NC(=O)CC3c2ccsc2)cc1 (stereo not given)

>  <assayed-system>
NCI/ADR-RES ovarian

>  <category>
t

$$$$
>  <molecule>
N[C@@H]1CCCN(c2c(Br)cnc3[nH]cc(NC(=O)C4CC4)c23)C1

>  <assayed-system>
NCI/ADR-RES ovarian

>  <category>
t

$$$$
>  <molecule>
[Br][Pb]([c]1ccccc1)([c]1ccccc1)[c]1ccccc1

>  <assayed-system>
NCI/ADR-RES ovarian

>  <category>
t

$$$$

Ask: Fill in: this test's call for COc1cc(C2CC(c3ccccc3)=NN2C=O)ccc1Oc1ccnc2cc(Cl)ccc12 (stereo not given) is ___
Result: f

Ask: Field: outcome | Entry: `NC(=NCCCCCCN=C(N)/N=C(\N)Nc1ccc(Cl)cc1)/N=C(\N)Nc1ccc(Cl)cc1`
Result: f

Ask: Call for entry `Cc1ccc(NCCNCC(C)(C)O)c2c(=O)c3ccc(Cl)cc3sc12` :
Result: f

Ask: Hi team, can someone confirm the assay call for `CCCCNc1ncnc2c1cnn2-c1ccccc1` ?
Result: f

Ask: Hello, I am checking results. What call was entered for `CCCN1C(=O)/C(=C/c2ccc(SC(F)(F)F)cc2)SC1=Nc1ccc(OC)cc1` ?
Result: f

###

Tested on: MALME-3M melanoma
protocol-text: NCI tumour cell line growth inhibition, 48 h
endpoint: TGI (µM)
Express your answer in µM, writing the number without its unit.

>  <smiles-str>
COC(=O)c1c(C)nc(C)c2c1C(=O)C(Br)=C(NCc1ccccc1)C2=O

>  <output-unit>
µM

>  <TGI>
2.85

$$$$

Now, please, on to the next compound.
Ask: Reported TGI for `Clc1cc(N/N=C(\c2ccccc2)c2ccccn2)ncn1` : what is it?
Result: 3.35

###

Tested on: HCT-116 colon
protocol-text: NCI tumour cell line growth inhibition, 48 h
endpoint: TGI

>  <compound>
CCCCNc1ncnc2c1cnn2-c1ccccc1

>  <TGI>
> 100 µM

$$$$
>  <compound>
COc1ccc2nc3ccccc3c(NCCNCCO)c2c1

>  <TGI>
4.84 µM

$$$$
>  <compound>
COC(=O)CN1CCN(c2cccc3c2CCCC3)CC1

>  <TGI>
> 100 µM

$$$$
>  <compound>
CC(C)(O)C1COC2=C1C(=O)c1ccccc1C2=O (centres undefined)

>  <TGI>
66.9 µM

$$$$

Ask: GET /values?readout=TGI&item= O=C1NC(N2CCCC(CO)C2)=N/C1=C\c1cccs1 (centres undefined)
Result: > 100 µM

Ask: For `Clc1ccc2c(NCCNc3nc(N4CCOCC4)nc4ccccc34)ccnc2c1` , what is its reported TGI?
Result: 3.3 µM

Ask: Looking for the measured TGI of `COCN1C(=O)[C@@H]2CCCN2C(=O)c2ccc(N)cc21` , can you help?
Result: > 100 µM

Ask: Give its TGI value. Item: C=CCOCC1C2CCC3(OCCO3)C21 (centres undefined)
Result: > 100 µM

Ask: Reported TGI, compound COC(=O)c1ccccc1C1CN=NC12Cc1ccc(C)cc1C2=O (centres undefined) : ____
Result: > 100 µM

Ask: Bench note: what TGI did `COC(=O)c1c(C)nc(C)c2c1C(=O)C(Br)=C(NCc1ccccc1)C2=O` show?
Result: 7.22 µM

Ask: Give the measured TGI of `CCOC(=O)c1ccc(N(CCOS(C)(=O)=O)CCOS(C)(=O)=O)cc1` .
Result: > 100 µM

Ask: I'd like to know its TGI. The compound in question is COC1C(OC(=O)c2ccc(C)[nH]2)C(O)C(Oc2ccc3c(O)c(NC(=O)c4ccc(O)c(CC=C(C)C)c4)c(=O)oc3c2Cl)OC1(C)C (centres undefined)
Result: 33.1 µM

Ask: # TGI lookup, item FC(F)(F)c1ccccc1C1SCc2nc3ccccc3n21 (centres undefined)
Result: > 100 µM

###

Test system: SF-539 CNS
protocol-text: NCI tumour cell line growth inhibition, 48 h
endpoint: TGI (µM)
Report only the number, with the unit µM understood.

>  <compound>
COC1C(OC(=O)c2ccc(C)[nH]2)C(O)C(Oc2ccc3c(O)c(NC(=O)c4ccc(O)c(CC=C(C)C)c4)c(=O)oc3c2Cl)OC1(C)C (stereo not given)

>  <TGI (µM)>
38.1

$$$$

Moving on to the next compound.
Ask: Record `N[C@@H]1CCCN(c2c(Br)cnc3[nH]cc(NC(=O)C4CC4)c23)C1` : what is its TGI with SF-539 CNS?
Result: 0.503

###

System: MDA-MB-435
protocol-text: NCI tumour cell line growth inhibition, 48 h
Overview of recorded TGI for various compounds

Previously resolved entries follow.
>  <compound>
Cc1cc(C)c2nc3c(c(C(O)C4CCCCN4)c2c1)CC/C3=C\c1ccc(Cl)cc1 (stereo unspecified)

>  <TGI>
> 100 µM

$$$$
>  <compound>
O=C(/C=C/c1ccc(-c2ccccc2)cc1)NCc1ccc(C(=O)NCCc2ccccc2)cc1

>  <TGI>
> 100 µM

$$$$
>  <compound>
O=C1Cc2cc3ccccc3nc2-c2ccccc2N1

>  <TGI>
> 100 µM

$$$$

Ask: What does the data say about its TGI? Entry: CCOC(=O)C(O)(CC1=NC(C(=O)OC)(C(=O)OC)C(c2cccc(C=O)c2)O1)C(=O)OCC (stereo unspecified)
Result: > 100 µM

Ask: Could you share which TGI value was measured for `Nc1cccc(-c2cc(=O)c3cc4c(cc3[nH]2)OCO4)c1` ?
Result: 0.415 µM

Ask: Which TGI is reported for this compound? NC(CCC(=O)c1ccccn1)C(=O)O (stereo unspecified)
Result: > 100 µM

Ask: Please report the recorded TGI for O=C1c2cc3c(cc2NC(c2ccccc2F)C1O)OCO3 (stereo unspecified) .
Result: 13.6 µM

Ask: // query TGI value for entry `Cn1c(=O)c(-c2ccccc2Cl)cc2cnc(NC3CCOCC3)nc21`
Result: > 25 µM

###

Tested on: DU-145 prostate
protocol-text: NCI tumour cell line growth inhibition, 48 h
endpoint: TGI

Study these solved cases before continuing.
>  <compound>
N[C@@H]1CCCN(c2c(Br)cnc3[nH]cc(NC(=O)C4CC4)c23)C1

>  <TGI>
> 100 µM

$$$$
>  <compound>
CC[C@H](C)[C@H](NC(=O)C12C3C4C1C1C2C3C41NC)C(=O)N(C)[C@H](C[C@@H](OC(C)=O)c1nc(C(=O)N[C@@H](Cc2ccccc2)C[C@H](C)C(=O)OC)cs1)C(C)C (some centres undefined)

>  <TGI>
> 14.3 µM

$$$$
>  <compound>
CC1=NN(c2nc(N)nc(CO)n2)C(C)(C)C1

>  <TGI>
> 100 µM

$$$$
>  <compound>
CNC(=O)[C@H](Cc1ccccc1)NC(=O)N(CCC#N)CCN(C(=O)N[C@@H](Cc1ccccc1)C(=O)OC)c1ccccc1

>  <TGI>
> 100 µM

$$$$

# next compound below
Ask: Any idea what its TGI is? The compound is `OCCCN=C1CCCCC1`
Result: > 100 µM
